# Tested on: HCT116
# procedure-summary: CCK8 antiproliferative assay, HCT116
# Assay type: cell-based
# study-conditions: Homo sapiens, HCT-116; CCK8, 48 h, mean ± SD, n = 3
pIC50: −log10 of the molar value.

{"compound": "COc1cccc2c1C(=O)c1c(O)c3c(c(O)c1C2=O)C[C@@](O)(C(=O)CO)C[C@@H]3O[C@H]1C[C@H](N)[C@H](O)[C@H](C)O1 [Adriamycin, reference compound]", "pIC50": 5.82}
{"compound": "COc1cc(O)ccc1/C=C/C(=O)c1ccc(OCc2nnc(Nc3ccc(C(F)(F)F)cc3)o2)cc1 [Compound T4]", "pIC50": 5.77}
{"compound": "COc1cc(O)ccc1/C=C/C(=O)c1ccc(OCc2nnc(Nc3ccc(C(C)(C)C)cc3)o2)cc1 [Compound T8]", "pIC50": 5.19}
{"compound": "COc1cc(O)ccc1/C=C/C(=O)c1ccc(OCc2nnc(Nc3cccc(Cl)c3)o2)cc1 [Compound T14]", "pIC50": 5.01}

---

Each item that follows carries a reported pIC50.
# Tested on: KU812
# procedure-summary: CCK8 antiproliferative assay, KU812
# Format: cell-based
# study-conditions: Homo sapiens, CCK8, 48 h, mean ± SD, n = 3
pIC50: −log10 of the molar value.

{"compound": "COc1cc(O)ccc1/C=C/C(=O)c1ccc(OCc2nnc(Nc3ccc(C)cc3)o2)cc1 [Compound T1]", "test-target": "KU812", "comparison-symbol": "=", "pIC50": 5.02}
{"compound": "COc1cc(O)ccc1/C=C/C(=O)c1ccc(OCc2nnc(Nc3ccccc3F)o2)cc1 [Compound T12]", "test-target": "KU812", "comparison-symbol": "<", "pIC50": 4.52}
{"compound": "COc1cc(O)ccc1/C=C/C(=O)c1ccc(OCc2nnc(Nc3ccccc3Cl)o2)cc1 [Compound T13]", "test-target": "KU812", "comparison-symbol": "<", "pIC50": 4.52}
{"compound": "COc1cc(O)ccc1/C=C/C(=O)c1ccc(OCc2nnc(Nc3ccc(C(F)(F)F)cc3)o2)cc1 [Compound T4]", "test-target": "KU812", "comparison-symbol": "=", "pIC50": 5.09}
{"compound": "COc1cc(O)ccc1/C=C/C(=O)c1ccc(OCc2nnc(Nc3ccc(F)cc3)o2)cc1 [Compound T6]", "test-target": "KU812", "comparison-symbol": "=", "pIC50": 4.77}
{"compound": "COc1cc(O)ccc1/C=C/C(=O)c1ccc(OCc2nnc(Nc3cccc(C)c3)o2)cc1 [Compound T10]", "test-target": "KU812", "comparison-symbol": "<", "pIC50": 4.52}
{"compound": "COc1cc(O)ccc1/C=C/C(=O)c1ccc(OCc2nnc(Nc3ccc(C(C)(C)C)cc3)o2)cc1 [Compound T8]", "test-target": "KU812", "comparison-symbol": "=", "pIC50": 4.92}
{"compound": "COc1cc(O)ccc1/C=C/C(=O)c1ccc(OCc2nnc(Nc3ccc(C)cc3C)o2)cc1 [Compound T15]", "test-target": "KU812", "comparison-symbol": "<", "pIC50": 4.52}
{"compound": "COc1cc(O)ccc1/C=C/C(=O)c1ccc(OCc2nnc(Nc3ccc(Cl)cc3)o2)cc1 [Compound T7]", "test-target": "KU812", "comparison-symbol": "=", "pIC50": 4.76}
{"compound": "CCOc1ccc(Nc2nnc(COc3ccc(C(=O)/C=C/c4ccc(O)cc4OC)cc3)o2)cc1 [Compound T3]", "test-target": "KU812", "comparison-symbol": "=", "pIC50": 4.76}
{"compound": "COc1cc(O)ccc1/C=C/C(=O)c1ccc(OCc2nnc(Nc3ccc(F)cc3F)o2)cc1 [Compound T16]", "test-target": "KU812", "comparison-symbol": "<", "pIC50": 4.52}
{"compound": "COc1ccc(Nc2nnc(COc3ccc(C(=O)/C=C/c4ccc(O)cc4OC)cc3)o2)cc1 [Compound T2]", "test-target": "KU812", "comparison-symbol": "=", "pIC50": 4.88}
{"compound": "COc1cc(O)ccc1/C=C/C(=O)c1ccc(OCc2nnc(Nc3cccc(Cl)c3)o2)cc1 [Compound T14]", "test-target": "KU812", "comparison-symbol": "<", "pIC50": 4.52}
